Target: GCS (Canis lupus familiaris, UniProt A0A8I3MXG6)
Construct: endogenous in cells; host or cells: MDCK (Madin-Darby canine kidney) cells, whole-cell lysate
Assay: GCS enzymatic assay (MDCK cell lysate, NBD-ceramide to glucosylceramide, LC/MS); as to Data Range (% inhibition): test concentration or dose not given here
Type: biochemical, canine
Details: Table 2; class symbols D, E, F, NA (not active); the table does not say which of the assays
Result type: Data Range (% inhibition)

> print(dat)
                                   compound  experimental.value
1  O=C(N[C@H](CN1CCCC1)[C@H](O)c1ccc(OC2CC2)c(Cl)c1)C1CCN(c2ccc(OC(F)(F)F)cc2)C1 (stereo partly drawn)         D (75-100%)
2  O=C(N[C@H](CN1CCCC1)[C@H](O)c1ccc2c(c1)OCCO2)C1CCN(c2ccc3ccccc3n2)C1 (stereo partly drawn) [Compound 72A]         D (75-100%)
3  O=C(N[C@H](CN1CCCC1)[C@H](O)c1ccc2c(c1)OCCO2)C1CCN(c2ccc(Cl)c(Cl)c2)C1 (stereo in doubt) [Compound 8]         D (75-100%)

----------
Biological target: GCS (Canis lupus familiaris, UniProt A0A8I3MXG6)
Construct: endogenous in cells
Sequence (A0A8I3MXG6 1-394): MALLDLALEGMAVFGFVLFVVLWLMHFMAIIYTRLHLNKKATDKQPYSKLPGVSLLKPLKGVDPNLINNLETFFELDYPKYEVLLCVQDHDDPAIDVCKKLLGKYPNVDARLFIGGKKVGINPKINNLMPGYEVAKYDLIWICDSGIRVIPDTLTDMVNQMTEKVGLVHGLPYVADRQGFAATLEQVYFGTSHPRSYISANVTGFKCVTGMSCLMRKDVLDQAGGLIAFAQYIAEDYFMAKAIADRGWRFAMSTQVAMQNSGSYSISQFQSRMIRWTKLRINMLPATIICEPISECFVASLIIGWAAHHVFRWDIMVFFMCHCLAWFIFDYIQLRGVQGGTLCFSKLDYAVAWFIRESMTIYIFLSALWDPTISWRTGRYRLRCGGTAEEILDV
Assay: GCS enzymatic assay (MDCK cell lysate, NBD-ceramide to glucosylceramide, LC/MS)
Settings: Table 2; class symbols A, B, C; the table does not say which of the assays; read-out: Data Range (IC50 values)
pIC50: −log10 of the molar value.
Result type: pIC50

> print(dat)
                                   molecule  result.type  experimental.value
1  O=C(N[C@H](CN1CCCC1)[C@H](O)c1cc(F)c2c(c1)OCCO2)[C@@]1(O)CCN(c2ccc(Cl)cc2)C1 [Compound 154C]        pIC50        6.00 to 7.00
2  C=COc1ccc([C@@H](O)[C@@H](CN2CCCC2)NC(=O)[C@@H]2CCN(c3ccc(Cl)cc3)C2)cc1Cl        pIC50        7.52 to 9.00
3  O=C(N[C@H](CN1CCCC1)[C@H](O)c1ccc2c(c1)OCCO2)[C@@H]1CCN(c2cccc(Oc3ccc(F)cc3)n2)C1        pIC50        7.52 to 9.00

----------
Molecular target: GCS (Canis lupus familiaris)
Construct: endogenous in cells; host or cells: MDCK (Madin-Darby canine kidney) cells, whole-cell lysate
Sequence (A0A8I3MXG6 1-394): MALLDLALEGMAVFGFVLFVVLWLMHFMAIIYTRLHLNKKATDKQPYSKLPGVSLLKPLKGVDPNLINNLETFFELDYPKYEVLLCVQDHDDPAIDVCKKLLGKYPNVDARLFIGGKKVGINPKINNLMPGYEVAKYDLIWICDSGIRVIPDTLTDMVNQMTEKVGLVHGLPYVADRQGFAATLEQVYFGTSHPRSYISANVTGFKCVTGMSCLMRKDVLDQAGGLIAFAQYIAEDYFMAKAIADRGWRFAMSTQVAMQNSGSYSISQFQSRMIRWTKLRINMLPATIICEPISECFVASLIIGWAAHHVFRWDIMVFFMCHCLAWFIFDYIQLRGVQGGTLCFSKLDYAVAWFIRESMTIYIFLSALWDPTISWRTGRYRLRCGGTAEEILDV
Test: GCS enzymatic assay (MDCK cell lysate, NBD-ceramide to glucosylceramide, LC/MS)
Assay type: biochemical, canine
Conditions: Table 2; class symbols A, B, C; the table does not say which of the assays; read-out: Data Range (IC50 values)
Below, each of the compounds is paired with its reported IC50 value.
Result type: IC50

> print(dat)
                                    compound  result.type  experimental.value
 1  O=C(N[C@H](CN1CCCC1)[C@H](O)c1cc(F)c2c(c1)OCCO2)[C@@H]1CCN(c2ccc(Cl)cc2)C1         IC50          1 to 30 nM
 2  O=C(N[C@H](CN1CCCC1)[C@H](O)c1ccc(OC2CC2)c(Cl)c1)[C@@H]1CCN(c2ccc3cc(F)ccc3c2)C1         IC50          1 to 30 nM
 3  O=C(N[C@H](CN1CCCC1)[C@H](O)c1ccc(OC2CCOCC2)c(Cl)c1)[C@@H]1CCN(c2ccc(F)cc2)C1         IC50          1 to 30 nM
 4  O=C(N[C@H](CN1CCC1)[C@H](O)c1ccc2c(c1)OCCO2)C1CCN(c2ccc3cc(F)ccc3c2)C1 (stereo partly shown) [Compound 79A]         IC50          1 to 30 nM
 5  O=C(N[C@H](CN1CCCC1)[C@H](O)c1ccc2c(c1)OCCO2)[C@@H]1CCN(c2ccc3ccccc3n2)C1         IC50          1 to 30 nM
 6  CC(C)Oc1ccc([C@@H](O)[C@@H](CN2CCCC2)NC(=O)[C@@H]2CCN(c3ccc(Cl)cc3)C2)cc1Cl         IC50          1 to 30 nM
 7  O=C(N[C@H](CN1CCCC1)[C@H](O)c1ccc(OC2CC2)c(Cl)c1)[C@@H]1CCN(c2ccc(Cl)c(-c3ccc(F)cc3)c2)C1         IC50        30 to 100 nM
 8  O=C(N[C@H](CN1CCCC1)[C@H](O)c1ccc2c(c1)OCCO2)C1CCN(c2ccc3ccsc3c2)C1 (stereo partly shown) [Compound 53C]         IC50        30 to 100 nM
 9  Cn1ncc2ccc(N3CCC(C(=O)N[C@H](CN4CCCC4)[C@H](O)c4ccc5c(c4)OCCO5)C3)cc21 (stereo partly shown) [Compound 61C]         IC50          1 to 30 nM
10  O=C(N[C@H](CN1CCCC1)[C@H](O)c1ccc(OC2CC2)c(Cl)c1)[C@@H]1CCN(c2cccc(-c3ccc(F)cc3)n2)C1         IC50          1 to 30 nM
11  O=C(N[C@H](CN1CCCC1)[C@H](O)c1ccc(OC2CC2)cc1)[C@@H]1CCN(c2ccc3cc(F)ccc3c2)C1         IC50          1 to 30 nM
12  O=C(N[C@H](CN1CCCC1)[C@H](O)c1ccc(OC2CC2)c(Cl)c1)[C@H]1CCN(c2ccc(Cl)cn2)C1 [Compound 57A]         IC50          1 to 30 nM
13  O=C(N[C@H](CN1CCCC1)[C@H](O)c1ccc2c(c1)OCCO2)[C@@H]1CCN(c2cccc(Oc3ccc(Cl)cc3)n2)C1         IC50          1 to 30 nM
